tested on: PC-3 prostrate cell adenocarcinoma; test: Relative colony forming efficiency (Example 17, Table 13); type: cell-based, human; conditions: averages of 2-8 determinations
Oligonucleotides are written 5' to 3', each unit as a sugar letter and its base; * is a phosphorothioate linkage, no mark a phosphodiester; rarer units and linkages stand in square brackets, end groups in braces. Plain capitals give the bases only. d = 2'-deoxy (DNA)
# if value of Reduced relative colony forming efficiency, PC-3 (% inhibition of colony forming ability) reaches 90%, tag MET; if it stays below, tag NOT MET

Ask: Is it the case that GGTTTTCTCTCAGCAGCGGC (antisense dG*dG*dT*dT*dT*dT*dC*dT*dC*dT*dC*dA*dG*dC*dA*dG*dC*dG*dG*dC) [AS-II-404-20] has Reduced relative colony forming efficiency, PC-3 (% inhibition of colony forming ability) reaching or exceeding 90%?
Result: NOT MET

Ask: Now the sequence CCTTGCCCTGAGAGATTCCT (antisense dC*dC*dT*dT*dG*dC*dC*dC*dT*dG*dA*dG*dA*dG*dA*dT*dT*dC*dC*dT) [AS-II-2083-20]
Result: NOT MET

Continuing:
Ask: Is it the case that TGCCTCCGACCCTTCCCATT (antisense dT*dG*dC*dC*dT*dC*dC*dG*dA*dC*dC*dC*dT*dT*dC*dC*dC*dA*dT*dT) [AS-II-14-20] has Reduced relative colony forming efficiency, PC-3 (% inhibition of colony forming ability) reaching or exceeding 90%?
Result: MET

Ask: Now the sequence TCAGGCAAGCAAAATCACAG (antisense dT*dC*dA*dG*dG*dC*dA*dA*dG*dC*dA*dA*dA*dA*dT*dC*dA*dC*dA*dG) [AS-II-1001-20]
Result: NOT MET

Ask: Now the sequence TCGCCTACTCTCTTCTCAAA (antisense dT*dC*dG*dC*dC*dT*dA*dC*dT*dC*dT*dC*dT*dT*dC*dT*dC*dA*dA*dA) [AS-II-1278-20]
Result: NOT MET

----------
test system: HepG2 hepatocellular carcinoma; assay: Relative colony forming efficiency (Example 17, Table 13); type: cell-based, human; details: averages of 2-8 determinations
Oligonucleotides are written 5' to 3', each unit as a sugar letter and its base; * is a phosphorothioate linkage, no mark a phosphodiester; rarer units and linkages stand in square brackets, end groups in braces. Plain capitals give the bases only. d = 2'-deoxy (DNA)
valueType: Reduced relative colony forming efficiency, HepG2 (% inhibition of colony forming ability) (%)
Field: numeric (%). Do not append units.

Look over these answered cases.
Ask: Which Reduced relative colony forming efficiency, HepG2 (% inhibition of colony forming ability) value belongs to GGCGACCCCTCACTCCAGCA (antisense dG*dG*dC*dG*dA*dC*dC*dC*dC*dT*dC*dA*dC*dT*dC*dC*dA*dG*dC*dA) [AS-II-114-20] ?
Result: 78.72

Ask: Now the sequence GACACAAGGCATCGTTTCAA (antisense dG*dA*dC*dA*dC*dA*dA*dG*dG*dC*dA*dT*dC*dG*dT*dT*dT*dC*dA*dA) [AS-II-784-20]
Result: 80.89

Continuing:
Ask: Which Reduced relative colony forming efficiency, HepG2 (% inhibition of colony forming ability) value belongs to GCAGCGAAGCAGAGCGAGCA (antisense dG*dC*dA*dG*dC*dG*dA*dA*dG*dC*dA*dG*dA*dG*dC*dG*dA*dG*dC*dA) [AS-II-166-20] ?
Result: 78.72

Ask: Now the sequence GTCTCTCCTCCGATGGTTTG [AS-II-1040-20]
Result: 77.78
